# System: SNB-75
# MEASUREMENT PROTOCOL: NCI tumour cell line growth inhibition, 48 h
The source made the active and inactive calls. Cut-off read from the data, not from the text of the source: active = GI50 up to about 1.1 µM and inactive = higher.
The entries below come with measured GI50 values attached.

MOLECULE	GI50
COc1cccc2c1C(=O)c1c(O)c3c(c(O)c1C2=O)C[C@@](O)(C(C)=O)C[C@@H]3OC1CC(N(Cc2ccccc2)Cc2ccccc2)C(O)C(C)O1 (some centres undefined)	30.1 µM (inactive)
CCCNC(=O)CCC(C)C1CCC2C3C(C[C@H](OC(C)=O)[C@]12C)[C@@]1(C)CCC2(C[C@H]1C[C@H]3OC(C)=O)OOC1(CC[C@]3(C)C4C[C@H](OC(C)=O)[C@]5(C)C(C(C)CCC(=O)NCCC)CCC5C4[C@H](OC(C)=O)C[C@@H]3C1)OO2 (some centres undefined)	57.5 µM (inactive)
CC(C)C(=O)CC(c1ccc(Cl)cc1)N1N=C(C(C)C)CC1c1ccc(Cl)cc1 (centres undefined)	86.9 µM (inactive)
O=c1cnn2c(n1)sc1ccc3ccccc3c12	> 100 µM (inactive)

* * *

# System: OVCAR-4
# MEASUREMENT PROTOCOL: NCI tumour cell line growth inhibition, 48 h
The source made the active and inactive calls. No stated cut-off is given here; in the data, active = GI50 up to about 1.1 µM and inactive = higher.
The entries below come with measured GI50 values attached.

COMPOUND	TESTED ON	GI50
COC(=O)C1OC(Oc2cc(O)c3c(=O)cc(-c4ccc(O)cc4)oc3c2)C(O)C(O)C1O (stereo not given)	OVCAR-4	> 100 µM (inactive)
CC(C)C(NC(=O)C(Cc1ccccc1)NC(=O)[C@H]1CCC[C@H]1NC(=O)C(N)Cc1ccc(O)cc1)C(N)=O (stereo not given in full)	OVCAR-4	> 100 µM (inactive)
CSc1ccc(NC(=O)CCl)cc1	OVCAR-4	> 10 µM (inactive)
CCCC(=O)NC(NC1CCCCC1)(C(=O)OCC)C(F)(F)F (stereo not given)	OVCAR-4	> 100 µM (inactive)
N/N=C(\Nc1ccccc1)SCc1ccccc1	OVCAR-4	> 100 µM (inactive)
C=CCN1C(=O)CS/C1=N/NC(=O)C(O)(c1ccccc1)c1ccccc1	OVCAR-4	> 10 µM (inactive)
Cc1c(C)c2c(c(N)c1C#N)C(=O)N(OS(=O)(=O)c1ccccc1)C2=O	OVCAR-4	21.2 µM (inactive)
N#C/C(=C\c1ccc2[nH]ccc2c1)C(=O)c1ccc(O)c(O)c1	OVCAR-4	> 64.3 µM (inactive)
BrC1=C(Br)C2(SCCS2)[C@H]2C[C@@H]1c1ccccc12	OVCAR-4	29.9 µM (inactive)
Nc1nc(N)c(-c2ccccc2)c(CCC(=O)Nc2ccc(Cl)cc2)n1	OVCAR-4	> 100 µM (inactive)
O=[N+]([O-])c1ccccc1S(=O)(=O)N1CCCc2cc(Cl)ccc21	OVCAR-4	> 100 µM (inactive)
CN1c2ccc(Cl)cc2C(=O)NC1c1ccc([N+](=O)[O-])s1 (stereo not given)	OVCAR-4	20.4 µM (inactive)
Oc1cc(C2OCCCO2)cc(O)c1O	OVCAR-4	> 100 µM (inactive)
Cn1cc(NC(=O)c2cc(NC(=O)CCCCCCCCC(=O)Nc3cc(C(=O)Nc4cc(C(=O)NCCC(N)N)n(C)c4)n(C)c3)cn2C)cc1C(=O)NCCC(=N)N	OVCAR-4	34.7 µM (inactive)
CCN(CC)Cc1ccc2cccnc2c1O	OVCAR-4	16.4 µM (inactive)
C=C[C@@]1(C)CC(=O)[C@]2(O)[C@@]3(C)[C@@H](OC(C)=O)CCC(C)(C)[C@@H]3[C@H](OC(C)=O)[C@H](OC(C)=O)[C@@]2(C)O1	OVCAR-4	> 100 µM (inactive)
COc1ccc(/C=C/c2cnccn2)cc1OC	OVCAR-4	> 10 µM (inactive)
CCN(CC)CC(=N)N(CC)c1ccccc1	OVCAR-4	> 100 µM (inactive)
Cc1cc2nc3[nH]nc(N)c3nc2cc1C	OVCAR-4	> 100 µM (inactive)
CSc1ncnc2c1cnn2Cc1cn(COCC(O)CO)nn1 (stereo not given)	OVCAR-4	> 100 µM (inactive)
CCC(C)(O)c1cn(-c2cccc(S(=O)(=O)O)c2)nn1 (stereo not given)	OVCAR-4	> 100 µM (inactive)
O=c1cnn2c(n1)sc1ccc3ccccc3c12	OVCAR-4	> 100 µM (inactive)
O=C(/N=N/c1ccc([N+](=O)[O-])cc1)NNc1ccc([N+](=O)[O-])cc1	OVCAR-4	18.1 µM (inactive)
CCC12C=CCN3CCC4(c5cc(C6(C(=O)OC)CCCCCc7c6[nH]c6ccccc76)c(OC)cc5N(C)C4C(O)(C(=O)OC)C1OC(C)=O)C32 (stereo not given)	OVCAR-4	2.95 µM (inactive)
O=C(O)C1C2CCC(O2)C1C(=O)N1CCCCC1 (stereo not given)	OVCAR-4	10.8 µM (inactive)
N#CC(NNC(=O)Cc1ccccc1)c1ccc(O)cc1 (stereo not given)	OVCAR-4	> 100 µM (inactive)
ClC1(Cl)C(c2ccccc2)C1c1ccccc1 (stereo not given)	OVCAR-4	44.6 µM (inactive)
O=C(NCCNCCO)N/N=C/c1ccccc1	OVCAR-4	> 100 µM (inactive)
CC1(C)N=c2c(ncn2-c2ccccc2)=C(C(N)=O)N1	OVCAR-4	> 100 µM (inactive)
COc1ccc2nc(N/N=C/c3sccc3C)cc(C)c2c1	OVCAR-4	21.4 µM (inactive)
CC(=O)c1sc(=N)n(-c2c(C)cccc2C)c1C	OVCAR-4	> 100 µM (inactive)
CC1CCC(O)/C=C/C(=O)OC(C)C(O)/C=C/C(=O)O1 (stereo not given)	OVCAR-4	> 100 µM (inactive)
C(#Cc1ccccc1)SC1=C(c2ccccc2)S/C(=C(\SC#Cc2ccccc2)c2ccccc2)S1	OVCAR-4	> 100 µM (inactive)
COc1cccc2c1C(=O)c1c(O)c3c(c(O)c1C2=O)C[C@@](O)(C(C)=O)C[C@@H]3OC1CC(N(Cc2ccccc2)Cc2ccccc2)C(O)C(C)O1 (stereo not given in full)	OVCAR-4	15.1 µM (inactive)
C[C@]12CC[C@H]3[C@@H](CCC4=C[C@@H](N5CCCC5)CC[C@@]43C)[C@@H]1C/C(=C\c1ccncc1)[C@@H]2O	OVCAR-4	18 µM (inactive)

* * *

# Test system: UACC-257
# MEASUREMENT PROTOCOL: NCI tumour cell line growth inhibition, 48 h
Active and inactive are the calls of the source. Cut-off read from the data, not from the text of the source: active = GI50 up to about 1.1 µM and inactive = higher.
Labels: 1 for active, -1 for inactive

COMPOUND	LABEL CLASS
CC(C)[C@H](NC(=O)[C@@H](O)[C@H](N)Cc1ccccc1)C(=O)N[C@@H](Cc1ccccc1)C(=O)O	-1
CSC(=N)NNC(=O)CCC(=O)Nc1ccccc1C(F)(F)F	-1
O=[N+]([O-])c1cc(C2(N3CCCCC3)CCCCC2)sc1Br	-1
CC(=O)NC(C)(C)C1CCC(C)CC1 (stereo not given)	-1
OC12c3ccccc3C1CCCCCC21OCCCO1 (stereo not given)	-1
Cc1ccc(/N=N/c2c(O)c3ccccc3[nH]c2=O)c(S(=O)(=O)N(C)C)c1	-1
C[C@H]1C/C=C/[C@H]2[C@@H]3O[C@]3(C)[C@@H](C)[C@H]3[C@H](Cc4ccccc4)NC(=O)[C@]32OC(=O)O/C=C/[C@@](C)(O)C1=O [CYTOCHALASIN E]	1
COc1ccc2cc(C(C)C(O)c3cc(F)c(F)c(F)c3F)ccc2c1 (stereo not given)	-1
CC1CCCc2c(-c3ccc(Cl)cc3)nc(N)c(C#N)c21 (stereo not given)	-1
O=C(O)c1cc(NC2=C(Cl)C(=O)c3c(O)ccc(O)c3C2=O)ccc1O	-1
COC(=O)C(C(=O)C(=O)Nc1nnc(S)[nH]1)c1csc(N)n1 (stereo not given)	-1
COc1c2c(c(O)c3c4c(c(C)cc13)C1OC3(C(OC)OC5CC(C)(O)C(OC6CC(C)(O)C(O)C(C)O6)C(C)O5)OC1C(OC)(O4)C31CO1)C(=O)C(O)CC2OC1CC(C)(O)C(OC(C)=O)C(C)O1 (stereo not given)	1
C[C@H]1CCC/C=C/[C@@H]2C[C@H](OC(=O)CN(C)C)C[C@H]2[C@H](O)/C=C/C(=O)O1	1
COC1(OC)CC2C(=O)N(Cc3ccccc3)C1CC2S(=O)(=O)c1ccccc1 (stereo not given)	-1
COC(=O)c1sc(=O)sc1SCc1cccc(CSc2sc(=O)sc2C(=O)OC)c1	-1
Cc1cc(C)nc(NS(=O)(=O)c2ccc(NC(=O)c3c4ccccc4nc4ccccc34)cc2)n1	-1
COc1ccccc1Cn1c2c(c3c(C(=O)NCCN(C)C)c(O)ccc31)C(=O)c1ccccc1C2=O	-1
O=C(O)c1ccccc1NC(c1ccccc1)c1ccc2cccnc2c1O (stereo not given)	-1
COc1cc(C(C)c2cc3c(cc2OCCCCCOc2cc4c(cc2C(C)c2cc(OC)c(OC)c(OC)c2)OCO4)OCO3)cc(OC)c1OC (stereo not given)	-1
CC(C)(C)[Si](C)(C)OC1CCOC1(O)c1ccccn1 (stereo not given)	-1
